Experiment: Cytotoxicity against human MT4 cells assessed as reduction in cell viability after 5 days by MTT assay
Format: toxicity, cell-based
Conditions: time 5 day
Measurement Type: CC50 at 120 h (µM)
Express it in µM; write the number only.

[[record]]
chemical_structure = "COc1ccc(N(C)C(=O)[C@H](Cc2cc(F)cc(F)c2)NC(=O)CN2CCN(C(=O)c3ccc(F)cc3)CC2=O)cc1"
units_text = "µM"
numeric_readout = 77


IN: Supply recorded CC50 at 120 h for COc1ccc(N(C)C(=O)[C@H](Cc2ccccc2)NC(=O)CN2CCN(C(=O)c3ccc([N+](=O)[O-])cc3)CC2=O)cc1 here.
OUT: 16

----------
// values below are reported selectivity ratio
Assay: Selectivity index, ratio of CC50 for human MT4 cells to EC50 for HIV-1 IIIB infected in human MT4 cells
Assay type: toxicity, cell-based
Settings: read-out: Ratio CC50/EC50

[[record]]
chemical_structure = "COc1ccc(N(C)C(=O)[C@H](Cc2ccccc2)NC(=O)CN2CCN(C(=O)c3ccc(F)cc3)CC2=O)cc1"
result = "< 1"

[[record]]
chemical_structure = "COC(=O)c1ccc(C(=O)N2CCN(CC(=O)N[C@@H](Cc3ccccc3)C(=O)N(C)c3ccc(OC)cc3)C(=O)C2)cc1"
result = "< 1"

[[record]]
chemical_structure = "COc1ccc(N(C)C(=O)[C@H](Cc2ccccc2)NC(=O)CN2CCN(C(=O)c3cccc([N+](=O)[O-])c3)CC2=O)cc1"
result = "< 1"

[[record]]
chemical_structure = "COc1ccc(N(C)C(=O)[C@H](Cc2cc(F)cc(F)c2)NC(=O)CN2CCN(C(=O)c3ccc(Cl)cc3)CC2=O)cc1"
result = "< 1"


IN: Supply recorded selectivity ratio for COc1ccc(N(C)C(=O)[C@H](Cc2ccccc2)NC(=O)CN2CCN(C(=O)c3ccc(Cl)cc3)CC2=O)cc1 here.
OUT: < 1

----------
// values below are reported selectivity ratio
Assay: Selectivity index, ratio of CC50 for human MT4 cells to EC50 for HIV-1 IIIB infected in human MT4 cells
Type: toxicity, cell-based
Details: read-out: Ratio CC50/EC50
Respond with the number and no other words.

Reference set, count: 3
[[record]]
chemical_structure = "COc1ccc(N(C)C(=O)[C@H](Cc2cc(F)cc(F)c2)NC(=O)CN2CCN(C(=O)c3ccccc3[N+](=O)[O-])CC2=O)cc1"
numeric_readout = 27

[[record]]
chemical_structure = "COc1ccc(N(C)C(=O)[C@H](Cc2cc(F)cc(F)c2)NC(=O)CN2CCN(C(=O)c3ccccc3N)CC2=O)cc1"
numeric_readout = 8.9

[[record]]
chemical_structure = "COc1ccc(N(C)C(=O)[C@H](Cc2ccccc2)NC(=O)CN2CCN(C(=O)c3ccccc3[N+](=O)[O-])CC2=O)cc1"
numeric_readout = 8.2


IN: Supply recorded selectivity ratio for COc1ccc(N(C)C(=O)[C@H](Cc2ccccc2)NC(=O)CN2CCN(C(=O)c3ccccc3N)CC2=O)cc1 here.
OUT: 7

----------
Test: Selectivity index, ratio of CC50 for human MT4 cells to EC50 for HIV-1 IIIB infected in human MT4 cells
Assay type: toxicity, cell-based
Conditions: read-out: Ratio CC50/EC50
// values below are reported selectivity ratio

Reference set, count: 10
[[record]]
chemical_structure = "COc1ccc(N(C)C(=O)[C@H](Cc2cc(F)cc(F)c2)NC(=O)CN2CCN(C(=O)c3ccc(Br)cc3)CC2=O)cc1"
result = "< 1"

[[record]]
chemical_structure = "COc1ccc(N(C)C(=O)[C@H](Cc2ccccc2)NC(=O)CN2CCN(C(=O)c3cccc(N)c3)CC2=O)cc1"
result = "≥ 1"

[[record]]
chemical_structure = "COc1ccc(N(C)C(=O)[C@H](Cc2ccccc2)NC(=O)CN2CCN(C(=O)c3ccccc3)CC2=O)cc1"
result = "> 8.6"

[[record]]
chemical_structure = "COc1ccc(N(C)C(=O)[C@H](Cc2ccccc2)NC(=O)CN2CCN(C(=O)c3ccc(N)cc3)CC2=O)cc1"
result = "> 11"

[[record]]
chemical_structure = "COc1ccc(N(C)C(=O)[C@H](Cc2ccccc2)NC(=O)CN2CCN(C(=O)c3cccc(F)c3)CC2=O)cc1"
result = "> 10"

[[record]]
chemical_structure = "COc1ccc(N(C)C(=O)[C@H](Cc2cc(F)cc(F)c2)NC(=O)CN2CCN(C(=O)c3ccc(N)cc3)CC2=O)cc1"
result = "> 12"

[[record]]
chemical_structure = "COc1ccc(N(C)C(=O)[C@H](Cc2cc(F)cc(F)c2)NC(=O)CN2CCN(C(=O)c3cccc(N)c3)CC2=O)cc1"
result = "> 10"

[[record]]
chemical_structure = "COc1ccc(N(C)C(=O)[C@H](Cc2ccccc2)NC(=O)CN2CCN(C(=O)c3cccc(C(F)(F)F)c3)CC2=O)cc1"
result = "< 1"

[[record]]
chemical_structure = "COc1ccc(N(C)C(=O)[C@H](Cc2cc(F)cc(F)c2)NC(=O)CN2CCN(C(=O)c3ccccc3C(F)(F)F)CC2=O)cc1"
result = 9.2

[[record]]
chemical_structure = "COc1ccc(N(C)C(=O)[C@H](Cc2ccccc2)NC(=O)CN2CCN(C(=O)c3ccccc3F)CC2=O)cc1"
result = 5.8


IN: Supply recorded selectivity ratio for COc1ccc(C(=O)N2CCN(CC(=O)N[C@@H](Cc3ccccc3)C(=O)N(C)c3ccc(OC)cc3)C(=O)C2)cc1 here.
OUT: 4.2

IN: Supply recorded selectivity ratio for COc1ccc(N(C)C(=O)[C@H](Cc2ccccc2)NC(=O)CN2CCN(C(=O)c3ccc([N+](=O)[O-])cc3)CC2=O)cc1 here.
OUT: < 1

IN: Supply recorded selectivity ratio for COc1ccc(N(C)C(=O)[C@H](Cc2ccccc2)NC(=O)CN2CCN(C(=O)c3ccc(Br)cc3)CC2=O)cc1 here.
OUT: < 1

IN: Supply recorded selectivity ratio for COc1ccc(N(C)C(=O)[C@H](Cc2cc(F)cc(F)c2)NC(=O)CN2CCN(C(=O)c3ccccc3F)CC2=O)cc1 here.
OUT: 6.4

IN: Supply recorded selectivity ratio for COc1ccc(N(C)C(=O)[C@H](Cc2cc(F)cc(F)c2)NC(=O)CN2CCN(C(=O)c3cccc(C(F)(F)F)c3)CC2=O)cc1 here.
OUT: < 1

// provenance: ChEMBL document CHEMBL5329160
